Measured values drawn from patent US20110135636A1 for this set.

% inhibition reference
subject.of.test: T1, recombinant human EGFR extracellular domain with 6xHis (human, UniProt P00533 25-645)
T1 construct: In-house produced; also called 6xHis EGFR ECD; soluble human EGFR ECD; not shown: 6xHis tag
test.protocol: SPR competition, competitor 1320
Number only, in %; omit the unit.

Exercise: Hello, please tell me recorded % inhibition for this one: antibody 1024 (antibody, human IgG1, kappa, V domains shown, Chimeric IgG1 kappa) VH: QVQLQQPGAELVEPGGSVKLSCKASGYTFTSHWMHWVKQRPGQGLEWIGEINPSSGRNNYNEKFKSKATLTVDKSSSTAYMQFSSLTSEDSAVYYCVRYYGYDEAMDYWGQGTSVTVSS VL: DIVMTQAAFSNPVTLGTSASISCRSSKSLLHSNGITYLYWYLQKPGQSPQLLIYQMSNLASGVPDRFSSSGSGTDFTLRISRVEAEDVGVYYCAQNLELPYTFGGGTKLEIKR
Solution: 86

Exercise: Hello, please tell me recorded % inhibition for this one: antibody 1030 (antibody, human IgG1, kappa, V domains shown, Chimeric IgG1 kappa) VH: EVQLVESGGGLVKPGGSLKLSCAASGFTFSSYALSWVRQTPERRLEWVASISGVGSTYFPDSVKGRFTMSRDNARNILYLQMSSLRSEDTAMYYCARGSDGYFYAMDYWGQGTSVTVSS VL: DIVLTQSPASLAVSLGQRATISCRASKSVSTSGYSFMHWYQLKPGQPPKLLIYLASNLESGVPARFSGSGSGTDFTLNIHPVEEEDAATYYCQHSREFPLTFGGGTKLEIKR
Solution: 4

Exercise: Hello, please tell me recorded % inhibition for this one: antibody 1284 (antibody, human IgG1, kappa, V domains shown, Chimeric IgG1 kappa) VH: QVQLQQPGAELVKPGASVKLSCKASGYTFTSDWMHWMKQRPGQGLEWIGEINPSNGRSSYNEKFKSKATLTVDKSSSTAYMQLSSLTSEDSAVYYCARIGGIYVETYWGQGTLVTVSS VL: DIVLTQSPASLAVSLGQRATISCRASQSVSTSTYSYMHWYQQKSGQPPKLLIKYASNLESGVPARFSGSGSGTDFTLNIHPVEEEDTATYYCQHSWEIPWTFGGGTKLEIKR
Solution: -1

Exercise: Hello, please tell me recorded % inhibition for this one: antibody 1347 (antibody, human IgG1, kappa, V domains shown, Chimeric IgG1 kappa) VH: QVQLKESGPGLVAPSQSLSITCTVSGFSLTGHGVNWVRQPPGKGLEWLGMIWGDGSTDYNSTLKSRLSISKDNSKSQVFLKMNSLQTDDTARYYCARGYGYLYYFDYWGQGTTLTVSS VL: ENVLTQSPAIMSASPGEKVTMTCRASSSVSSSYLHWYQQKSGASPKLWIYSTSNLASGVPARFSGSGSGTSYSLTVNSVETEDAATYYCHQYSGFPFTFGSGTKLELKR
Solution: 2

Exercise: Hello, please tell me recorded % inhibition for this one: antibody 1208 (antibody, human IgG1, kappa, V domains shown, Chimeric IgG1 kappa; also called clone 1208) VH: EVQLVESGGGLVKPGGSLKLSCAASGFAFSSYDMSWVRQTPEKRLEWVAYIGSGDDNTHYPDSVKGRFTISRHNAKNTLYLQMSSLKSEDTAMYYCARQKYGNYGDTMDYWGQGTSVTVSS VL: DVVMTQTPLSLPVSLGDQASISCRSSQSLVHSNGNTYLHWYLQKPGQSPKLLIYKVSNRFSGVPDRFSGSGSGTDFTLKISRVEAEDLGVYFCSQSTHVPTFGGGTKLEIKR
Solution: 30
